// reported Efflux ratio per item
Tested on: P. aeruginosa expressing IMP-1, efflux+ (MB9798)
Assay type: cell-based, Pseudomonas aeruginosa
TEST CONTEXT: ratio MITC95 PA_9798/MITC95 PA_9799
ENDPOINT: Efflux ratio

1) C[C@H](N)CS(=O)(=O)c1ccc(-c2cccc3[nH]c(N)nc23)c(-c2nn[nH]n2)c1S(N)(=O)=O [Example 92]; 0.81
2) NS(=O)(=O)c1c([S+]([O-])C2CNC2)ccc(-c2cnc3ccccn23)c1-c1nn[nH]n1 (centres unmarked) [Example 8]; 8.00
3) COC(=O)c1nc2c(-c3ccc(S(=O)(=O)C4CNC4)c(S(N)(=O)=O)c3-c3nn[nH]n3)cccc2[nH]1 [Example 252]; 1.00
4) NCCS(=O)(=O)c1ccc(-c2ccc(-c3nn[nH]n3)cc2)c(-c2nnn[nH]2)c1S(N)(=O)=O.O=C(O)C(F)(F)F [Example 151]; 4.00
5) Nc1nc2c(-c3ccc(S(=O)(=O)CCO)c(S(N)(=O)=O)c3-c3nn[nH]n3)cccc2c[n+]1[O-] [Example 319]; 2.00
6) NCCNC(=O)c1ccccc1-c1ccc(S(=O)(=O)CCN)c(S(N)(=O)=O)c1-c1nn[nH]n1 [Example 342]; 4.00
7) Nc1nc2cccc(-c3ccc(SC4CCNCC4)c(S(N)(=O)=O)c3-c3nn[nH]n3)c2[nH]1 [Example 3]; 9.75
8) NC(=O)N1CC(S(=O)(=O)c2ccc(-c3cccc4[nH]c(N)nc34)c(-c3nn[nH]n3)c2S(N)(=O)=O)C1 [Example 56]; 1.00
9) Nc1ccc2c(-c3ccc(S(=O)(=O)C4CNC4)c(S(N)(=O)=O)c3-c3nnn[nH]3)ccnc2n1 [Example 27]; 4.00
10) NS(=O)(=O)c1c(S(=O)(=O)C2CNC2)ccc(C2=CCS(=O)(=O)CC2)c1-c1nn[nH]n1 [Example 218]; 8.00
11) NS(=O)(=O)c1c(S(=O)(=O)C2CNC2)ccc(-c2cccn3cc(C(=O)O)nc23)c1-c1nnn[nH]1 [Example 61]; 1.00
12) C[C@H](CN)S(=O)(=O)c1ccc(-c2cccc3nc(N)[nH]c23)c(-c2nn[nH]n2)c1S(N)(=O)=O [Example 277]; 2.00
13) CNC(=O)c1nc2c(-c3ccc(S(=O)(=O)C4CNC4)c(S(N)(=O)=O)c3-c3nn[nH]n3)cccc2[nH]1 [Example 255]; 4.00
14) COc1ccc(Cc2cc3c(-c4ccc(S(=O)(=O)C5CNC5)c(S(N)(=O)=O)c4-c4nnn[nH]4)cccc3n2C)cc1 [Example 230]; 32.00
15) CN1CC(S(=O)(=O)c2ccc(-c3cccc4[nH]c(N)nc34)c(-c3nn[nH]n3)c2S(N)(=O)=O)C1 [Example 52]; 4.00
16) NS(=O)(=O)c1c(S(=O)(=O)C2CNC2)ccc(-c2cccc3c2CNC3=O)c1-c1nnn[nH]1.O=C(O)C(F)(F)F [Example 113]; 8.00
17) Nc1nc2c(-c3ccc(S(=O)(=O)[C@@H]4CCNC4)c(S(N)(=O)=O)c3-c3nn[nH]n3)cccc2o1 [Example 189]; 1.00
